Would you mind telling me the reported viability, T/C of each entry?
Tested on: 616215-338-R-J1-PDC complex spheroid viability;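 note: spheroids exposed to agents for seven days before viability readout; 100% = DMSO vehicle control viability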
test: Anticancer human tumor 616215-338-R-J1-PDC patient-derived colon adenocarcinoma cell line growth inhibition [RAS]
run-parameters: second compound 0.000949 µM; first compound 0.0949 µM; stronger effect = lower value

Qu. Which viability, T/C is listed for CCc1c2c(nc3ccc(O)cc13)-c1cc3c(c(=O)n1C2)COC(=O)[C@]3(O)CC + CCn1c(-c2cccnc2C(C)OC)c2c3cc(ccc31)N1CCOC(CC(NC(=O)C(C(C)C)N(C)C(=O)C3(F)CCN(C(=O)C#CC(C)(C)N(C)C)CC3)C(=O)N3CCCC(N3)C(=O)OCC(C)(C)C2)C1 ?
Ans. 32.6%

Qu. Try CCc1c2c(nc3ccc(O)cc13)-c1cc3c(c(=O)n1C2)COC(=O)[C@]3(O)CC + CCn1c(-c2cc(N3CCN(C)CC3)cnc2C(C)OC)c2c3cc(ccc31)-c1csc(n1)CC(NC(=O)C1CC1C)C(=O)N1CCCC(N1)C(=O)OCC(C)(C)C2 next.
Ans. 21.2%

Qu. Try CC1(C)CCC(Nc2ncc(C(F)(F)F)c(-c3c[nH]c4c(P(C)(C)=O)c(C#N)ccc34)n2)CN1 (centres undefined) + CCn1c(-c2cc(N3CCN(C)CC3)cnc2C(C)OC)c2c3cc(ccc31)-c1csc(n1)CC(NC(=O)C1CC1C)C(=O)N1CCCC(N1)C(=O)OCC(C)(C)C2 next.
Ans. 32.2%

Qu. Try CC1(C)CCC(Nc2ncc(C(F)(F)F)c(-c3c[nH]c4c(P(C)(C)=O)c(C#N)ccc34)n2)CN1 (centres undefined) + CCn1c(-c2cccnc2C(C)OC)c2c3cc(ccc31)N1CCOC(CC(NC(=O)C(C(C)C)N(C)C(=O)C3(F)CCN(C(=O)C#CC(C)(C)N(C)C)CC3)C(=O)N3CCCC(N3)C(=O)OCC(C)(C)C2)C1 next.
Ans. 33.9%
